target: F protein of RSV B-wash (strain 18537) (respiratory syncytial virus B, strain …, UniProt P13843 26-574); assay: cell-based or functional assay
Sequence (P13843 26-574): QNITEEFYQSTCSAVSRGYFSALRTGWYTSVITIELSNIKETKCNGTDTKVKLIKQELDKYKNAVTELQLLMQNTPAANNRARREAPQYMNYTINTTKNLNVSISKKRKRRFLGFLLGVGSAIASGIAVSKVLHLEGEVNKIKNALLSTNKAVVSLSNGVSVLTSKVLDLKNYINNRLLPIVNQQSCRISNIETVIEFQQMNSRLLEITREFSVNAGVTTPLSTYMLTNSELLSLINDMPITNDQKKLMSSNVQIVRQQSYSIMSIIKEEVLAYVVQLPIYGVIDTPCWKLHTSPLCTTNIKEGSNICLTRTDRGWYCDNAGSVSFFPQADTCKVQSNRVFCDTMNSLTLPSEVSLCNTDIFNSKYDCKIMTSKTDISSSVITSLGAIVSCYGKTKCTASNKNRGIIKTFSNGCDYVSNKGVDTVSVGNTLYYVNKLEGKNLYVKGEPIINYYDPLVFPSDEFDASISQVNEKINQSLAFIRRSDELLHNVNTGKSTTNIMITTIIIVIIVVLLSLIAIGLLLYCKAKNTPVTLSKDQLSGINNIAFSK
Strictly below 0.9 nM in ED50, plaque reduction, RSV B/wash: 1. Otherwise: 0.

BINDER	QUALITATIVE_LABEL
IgG form of 56E11 (antibody, V domains shown) VH: EVQLQESGPGLVKPSETLSLTCSVSGVSINSNNYFWAWIRQPPGKGLEWIGNIYYGGSTHYNASLQSRVTISVDTSKSQFSLKLNSVTSADTAVYYCAASESIFWDYYYGLDVWGQGTTVTVSS VL: QAVLTQPPSASGSPGQSVTISCTGTSSDVGGYNYVSWYQQHPGKAPRLIISEVTKRPSGVPGRFSGSKSGNTASLTVSGLQAEDEADYYCSSYAGSRHVVFGGGTKLTVLG	1
IgG form of 38F10 (antibody, V domains shown) VH: EVQLLESGGDVVQPGKSLRLSCTASGFSITDFGIHWVRQAPGKGLEWVALISYNEVNIHYGESVRGRFTISRDIAKNTVYLQMNGLRPEDTGVYFCARDVWEDSWLSLACFQEWGQGSLVVVSS VL: DIQLTQSPPTLSASVGDRVSMTCRASQSISNWLAWYQQKPGKAPKLLIQKASNLEDGVPSRFTASGFGTEFTLTISSLQPDDFATYYCQQYNSYSGLSFGGGTKVDIKR	0
IgG form of 14G3 (antibody, V domains shown) VH: QVQLQESGPGLVKPSQTLSLTCTVSGASISSDNHYWSWIRQPPGKGLEWIASIYYTGGTNYNPSLKSRLALSIDTSGDQFSLKLSSVTAADTAVYYCVRGLFFITARPYWYFDLWGRGTLVAVSS VL: DVVMTQTPLSLSVTPGEPASISCRSSQSLLDSDDGNTYLDWYLQKPGQSPQLLIYTLSYRASGVPDRFSGSGSGTDFTLKISRVEADDVGIYYCMQRMEFPFTFGQGTRLDIKR	0
IgG form of 104E5 (antibody, V domains shown) VH: QVQLEQSGAEVKKPGSSVKVSCKPSGGTFDTYTISWVRQAPGQRLEWLGRIIPSLGETNYAHKLQGRVTITADKATSVVYMDLSDLTSEDAAVYYCAFRITGPVDWVWDYGMDVWGQGTTVSVSS VL: DIQMTQSPSSLPASVGDRVTITCRASQNIKTYLNWYQQKPGRAPKLLISAVSNLQSGVPSRFSGTGSGTDFTLTISSLQPEDFATYYCQQSFSIPLTFGGGAKVEIKR	0
Motavizumab IgG (antibody, V domains shown) VH: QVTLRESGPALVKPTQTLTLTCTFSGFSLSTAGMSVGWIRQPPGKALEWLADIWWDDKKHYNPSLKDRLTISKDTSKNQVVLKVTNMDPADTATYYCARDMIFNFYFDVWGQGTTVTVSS VL: DIQMTQSPSTLSASVGDRVTITCSASSRVGYMHWYQQKPGKAPKLLIYDTSKLASGVPSRFSGSGSGTEFTLTISSLQPDDFATYYCFQGSGYPFTFGGGTKVEIK	0
IgG form of 69F6 (antibody, V domains shown) VH: QMQLVQSGAEVRKPGESLKIACKGSGYSFTSYWIAWVRQMPGKGLEWLGIIFPNDSDATYSPSFQGQVTMSVDKSISTAYLQWNSLKASDTAVYFCARQYYLGSFESWGQGTTVTVSS VL: EIVLTQSPSSLSASVGDRVTISCQASQDISNYLNWYQQKPGKAPRLLIYDASYLDTGVPSRFSGSGSGTDFTFTISSLQPEDFATYYCQQYDDLRGGFTFGPGTKVDVKR	0
IgG form of 17C9 (antibody, V domains shown) VH: QVQLQQWGAGLVRPSETLSLTCAVYGDSFNDYFWTWIRQTPGKGLEWIGEISHSGSTNYSPSLKSRVTISVDTSKNQFSLKLSAVTAADTTVYFCARGVRSRPPPSYRGSGSPPYYHYGMDVWGQGTTVTVSS VL: EIVLTQSPSTLSASVGDRVTITCRASQNINTWLAWYQQKPGKAPKLLIYAASFLQSGVPSRFSGSGSGTDFTLTISNLQPEDFATYFCQQANSFPRTFGQGTKVEVKR	1
IgG form of 30D8 (antibody, V domains shown, also called IgG 30D8; 30D8 Mab) VH: EVQLLQSGAELKKPGASVKISCKTSGFTFSGHTIAWVRQAPGQGLEWMGWVSTNNGNTEYAQKIQGRVTMTMDTSTSTVYMELRSLTSDDTAVYFCAREWLVMGGFAFDHWGQGTLLTVSS VL: QSVLTQASSVSVAPGQTARITCGANNIGSQNVHWYQQKPGQAPVLVVYDDRDRPSGIPDRFSGSNSGNTATLTISRVEAGDEADYYCQVWDSSRDQAVIFGGGTKLTVLG	1
